SYSTEM_TESTED: hMC4R (Homo sapiens (Human), UniProt P32245)
Sequence (P32245 whole entry): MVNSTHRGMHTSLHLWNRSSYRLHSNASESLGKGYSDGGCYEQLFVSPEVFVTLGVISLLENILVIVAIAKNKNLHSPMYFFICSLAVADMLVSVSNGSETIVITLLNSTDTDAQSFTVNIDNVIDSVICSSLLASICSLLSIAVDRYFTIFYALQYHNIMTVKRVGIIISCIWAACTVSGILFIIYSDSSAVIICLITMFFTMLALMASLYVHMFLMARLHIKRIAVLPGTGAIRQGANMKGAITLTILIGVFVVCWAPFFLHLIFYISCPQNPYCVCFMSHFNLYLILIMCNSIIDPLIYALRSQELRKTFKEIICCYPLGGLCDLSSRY
ASSAY_REMARKS: In vitro binding affinity assay using hMC4R (radioligand competition binding, CHO cell membranes)
APPLIED_CONDITIONS: competition with [125I]-(Nle4, D-Phe7)-α-MSH 0.5 nM; Ki from IC50 by Cheng-Prusoff; read-out: Ki (nM) geometric mean
READOUT_NAME: log10 Ki (log10 of the value in nM)
Scale type: logarithmic (base 10). Underlying Ki unit: nM.

Query (compound): Cc1nc(N[C@H]2CCN(C(=O)Cc3ccc(F)c(F)c3)C2)ccc1-c1cn(C)c(C(F)F)n1 [Example 10] ; field requested: log10 Ki
-0.51

And then COc1cc([C@@H](C)C(=O)N2CC[C@H](Nc3ccc(-c4nnn(C)n4)c(C)n3)C2)c(C)cn1 (single isomer, unassigned) [Example 26B] , what is it?
0.32

Thanks! And COc1cc([C@@H](C)C(=O)N2CC[C@H](Nc3ccc(-c4cn(C)c(C(C)(F)F)n4)c(C)n3)C2)c(F)cn1 (single isomer, unassigned) [Example 21A] ?
2.28

Subsequent entry: COc1cc([C@@H](C)C(=O)N2CC[C@H](Nc3ccc(-c4nc(C(C)(F)F)n(C)n4)c(C)n3)C2)c(Cl)cn1 (single isomer, unassigned) [Example 37A]
2.18

Subsequent entry: COc1cc([C@@H](C)C(=O)N2CC[C@H](Nc3ccc(-c4nc5ccccn5n4)c(C)n3)C2)c(F)cn1 [Example 43]
-0.04

====

SYSTEM_TESTED: hMC4R (Homo sapiens (Human))
ASSAY_REMARKS: In vitro binding affinity assay using hMC4R (radioligand competition binding, CHO cell membranes)
APPLIED_CONDITIONS: competition with [125I]-(Nle4, D-Phe7)-α-MSH 0.5 nM; Ki from IC50 by Cheng-Prusoff; read-out: Ki (nM) geometric mean
Provide the recorded Ki for the entries that follow.
Give the value in nM but do not write nM after it.

Which Ki value is on record for Cc1nc(N[C@@H]2CCN(C(=O)Cc3ccc(F)cc3)C2(C)C)ccc1-c1cn(C)cn1 ?
520

Please give the result for COc1cc([C@@H](C)C(=O)N2CC[C@H](Nc3ccc(-c4nc(C(F)F)n(C)n4)c(C)n3)C2)nc(C)n1 (single isomer, unassigned) [Example 41A] too.
240

Another molecule: COc1cccc([C@@H](C)C(=O)N2CC[C@H](Nc3ccc(-c4cn(C)c(C(C)(F)F)n4)c(C)n3)C2)c1 (single isomer, unassigned) [Example 14A]
530

Same question, COc1cc([C@@H](C)C(=O)N2CC[C@H](Nc3ccc(-c4cn(C)c(C(C)(F)F)n4)c(C)n3)C2)c(F)cn1 (single isomer, unassigned) [Example 21B] this time
0.48

Next up: Cc1ccccc1[C@@H](C)C(=O)N1CC[C@H](Nc2ccc(-c3cn(C)c(C(C)(F)F)n3)c(C)n2)C1 (single isomer, unassigned) [Example 15B]
0.83

====

SYSTEM_TESTED: human Melanocortin-4 receptor (MC4R) (Homo sapiens (Human), UniProt P32245)
ASSAY_REMARKS: Functional in vitro MC4R antagonist potency assay (intracellular cAMP, HTRF, CHO cells)
Assay type: cell-based
APPLIED_CONDITIONS: cAMP after EC80 agonist stimulation (200 nM αMSH); Kb from IC50 by Leff-Dougall equation; read-out: Kb (nM) Antagonist geometric mean
Experimental: The functional in vitro antagonist potency for test compounds was determined by monitoring intracellular cyclic adenosine monophosphate (cAMP) levels in Chinese hamster ovary (CHO—) cells stably expressing the human Melanocortin-4 receptor (MC4R). […] Intracellular cAMP levels are quantitated using a homogenous assay utilizing the Homogeneous Time-Resolved Fluorescence (HTRF) technology from CisBio. […]
Exercise: state measured Kb for each of the molecules provided.
Kindly provide the numeric value in nM only, without the unit symbol.

Item Cc1nc(N[C@H]2CCN(C(=O)[C@H](F)c3ccccc3)C2)ccc1-c1cn(C)cn1 (single isomer, unassigned) [Example 13B] with human Melanocortin-4 receptor (MC4R) (Homo sapiens (Human), UniProt P32245) - Kb?
2.9

Do the same for COc1cc([C@@H](C)C(=O)N2CC[C@H](Nc3ccc(-c4cn(C)c(C(C)(F)F)n4)c(C)n3)C2)c(C)cn1 (single isomer, unassigned) [Example 16B] please
2.1

Another molecule to check: COc1cc([C@@H](C)C(=O)N2CC[C@H](Nc3ccc(-c4nc(C(C)(F)F)n(C)n4)c(C)n3)C2)c(F)cn1 [Example 4]
9.6

Continue with COc1cc(OC)cc([C@@H](C)C(=O)N2CC[C@H](Nc3ccc(-c4nc(C(F)(F)F)n(C)n4)c(C)n3)C2)c1 [Example 39]
3.3

And COc1cc([C@@H](C)C(=O)N2CC[C@H](Nc3ccc(-c4nnn(C)n4)c(C)n3)C2)c(C)cn1 (single isomer, unassigned) [Example 26B] ?
5.6

How about this molecule: COc1ccc(C)c([C@@H](C)C(=O)N2CC[C@H](Nc3ccc(-c4cn(C)cn4)c(C)n3)C2)c1 (single isomer, unassigned) [Example 20B]
2.9

Next: COc1cc([C@@H](C)C(=O)N2CC[C@H](Nc3ccc(-c4nc(C(F)(F)F)n(C)n4)c(C)n3)C2)c(F)cn1 [Example 2]
7.2

Continue with COc1cc([C@@H](C)C(=O)N2CC[C@H](Nc3ccc(-c4nc(C(F)F)n(C)n4)c(C)n3)C2)nc(C)n1 (single isomer, unassigned) [Example 41B]
3.6

Then this molecule: COc1cc(OC(F)F)cc([C@@H](C)C(=O)N2CC[C@H](Nc3ccc(-c4nc(C(C)(F)F)n(C)n4)c(C)n3)C2)c1 (single isomer, unassigned) [Example 40B]
7.2

Here is the next molecule: COc1cc([C@@H](C)C(=O)N2CC[C@H](Nc3ccc(-c4nnn(C)n4)c(C)n3)C2)c(F)cn1 [Example 5]
17

Please answer likewise for COc1cc([C@@H](C)C(=O)N2CC[C@H](Nc3ccc(-c4nc5ccccn5n4)c(C)n3)C2)c(F)cn1 [Example 43]
9.5

Follow-up entry: COc1cc([C@@H](C)C(=O)N2CC[C@H](Nc3ccc(-c4nc(C(F)(F)F)n(C)n4)c(C)n3)C2)c(Cl)cn1 (single isomer, unassigned) [Example 25B]
1.8

Same read-out for COc1cc([C@@H](C)C(=O)N2CC[C@H](Nc3ccc(-c4cn(C)c(C(F)F)n4)c(C)n3)C2)cc(OC)n1 (single isomer, unassigned) [Example 12A] ?
1.9

Consider next the molecule COc1cc([C@@H](C)C(=O)N2CC[C@H](Nc3ccc(-c4nc5ccccn5n4)c(C)n3)C2)c(Cl)cn1 [Example 18] in the same way.
2.1
